Values compiled from ChEMBL document CHEMBL1145135.

experiment: Tested for plasma level after 90 min of 30 mg/kg dose administered in mice; type: ADME, organism-based; set-up: dose 30 mg/kg; conditions: mouse, read-out: Activity
Quick rule: concentration at 1.5 h of at least 50000 ng/mL means yes, below that means no.

Chem Smiles: Cc1ccc(-n2nc(C(C)(C)C)cc2NC(=O)Nc2ccc(OCCN3C[C@H](C)O[C@@H](C)C3)c3ccccc23)cc1
Classification: no

Chem Smiles: Cc1ccc(-n2nc(C(C)(C)C)cc2NC(=O)Nc2ccc(OCCn3ccnc3)c3ccccc23)cc1
Classification: no

Chem Smiles: Cc1ccc(-n2nc(C(C)(C)C)cc2NC(=O)Nc2ccc(OCCN3CC[S+]([O-])CC3)c3ccccc23)cc1
Classification: yes

Chem Smiles: Cc1ccc(-n2nc(C(C)(C)C)cc2NC(=O)Nc2ccc(OCCN3CCOCC3)c3ccccc23)cc1
Classification: yes

Chem Smiles: Cc1ccc(-n2nc(C(C)(C)C)cc2NC(=O)Nc2ccc(OCCN3CCOCC3)c3ccccc23)cn1
Classification: yes

Chem Smiles: CC(C)(C)c1cc(NC(=O)Nc2ccc(OCCN3CCOCC3)c3ccccc23)n(-c2ccccc2)n1
Classification: no

Chem Smiles: COc1ccc(-n2nc(C(C)(C)C)cc2NC(=O)Nc2ccc(OCCN3CCOCC3)c3ccccc23)cn1
Classification: yes

Chem Smiles: Cc1ccc(-n2nc(C(C)(C)C)cc2NC(=O)Nc2ccc(OCCc3ccncc3)c3ccccc23)cc1
Classification: no
